Biological target: D3R (Homo sapiens (Human), UniProt P35462)
Experiment: D3 Mitogenesis Functional Assay (3H-thymidine uptake, CHOp-D3 cells)
Assay type: cell-based
Details: inhibition of quinpirole (30 nM final) stimulation of mitogenesis; read-out: D3 Antagonist IC50
pIC50: −log10 of the molar value.
measuredQuantity: pIC50

[
  {
    "chemicalStructure": "CC(C)(C)c1nc(N2CCN(CCCCNC(=O)c3cn4ccncc4n3)CC2)cc(C(F)(F)F)n1",
    "pIC50": 6.61
  },
  {
    "chemicalStructure": "CC(C)(C)c1nc(N2CCN(CCCCNC(=O)c3cn4ccccc4n3)CC2)cc(C(F)(F)F)n1",
    "pIC50": 6.80
  }
]

1: O=C(NCCCCN1CCN(c2ccnc3ccccc23)CC1)c1cn2ccccc2n1
2: CC(C)(C)c1nc(N2CCN(CCCCNC(=O)c3cn4cccnc4n3)CC2)cc(C(F)(F)F)n1
**Query** Which entry has a larger number for pIC50, 1 or 2 ? // return label of chosen record
**Result** 2

* * *

Target: human D3 dopamine receptor (Homo sapiens (Human), UniProt P35462)
Sequence (P35462 whole entry): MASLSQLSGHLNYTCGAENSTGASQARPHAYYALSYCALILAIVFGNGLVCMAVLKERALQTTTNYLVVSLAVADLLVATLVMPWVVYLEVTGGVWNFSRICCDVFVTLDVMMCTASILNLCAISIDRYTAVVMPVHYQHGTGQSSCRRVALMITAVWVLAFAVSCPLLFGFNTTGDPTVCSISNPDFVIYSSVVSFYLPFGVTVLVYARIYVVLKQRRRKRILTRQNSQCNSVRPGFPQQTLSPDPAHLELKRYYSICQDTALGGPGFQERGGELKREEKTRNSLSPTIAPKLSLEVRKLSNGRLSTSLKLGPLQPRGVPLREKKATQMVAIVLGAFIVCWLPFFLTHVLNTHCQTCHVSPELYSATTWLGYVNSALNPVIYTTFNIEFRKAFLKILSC
Assay: Radioligand binding (125I-IABN competition), D3
Settings: calculated D2 Ki/D3 Ki
measuredQuantity: D2/D3 (D3 selectivity ratio, D2 Ki/D3 Ki)

Look over these answered cases.
[
  {
    "compound": "O=C(NCCCCN1CCN(c2ccnc3cc(C(F)(F)F)ccc23)CC1)N1CCN(c2ccccc2)CC1 [Compound 83]",
    "testedTarget": "human D3 dopamine receptor (Homo sapiens (Human), UniProt P35462)",
    "readoutValue": 14
  },
  {
    "compound": "CN1CCC(N2CCN(C(=O)NCCCCN3CCN(c4cc(C(F)(F)F)nc(C(C)(C)C)n4)CC3)CC2)CC1 [Compound 76]",
    "testedTarget": "human D3 dopamine receptor (Homo sapiens (Human), UniProt P35462)",
    "readoutValue": 7
  },
  {
    "compound": "Cc1ccc2[nH]c3c(c2c1)CN(C(=O)NCCCCN1CCN(c2cc(C(C)(C)C)nc(C)n2)CC1)CC3 [Compound 94]",
    "testedTarget": "human D3 dopamine receptor (Homo sapiens (Human), UniProt P35462)",
    "readoutValue": 25
  },
  {
    "compound": "CC(C)(C)c1cc(N2CCN(CCCCNC(=O)N3CCN(c4ccccc4)CC3)CC2)cc(C(C)(C)C)c1 [Compound 86]",
    "testedTarget": "human D3 dopamine receptor (Homo sapiens (Human), UniProt P35462)",
    "readoutValue": 17
  }
]

P: CC(C)(C)c1nc(N2CCN(CCCCNC(=O)N3CCN(c4cc(C#N)cc(C(F)(F)F)c4)CC3)CC2)cc(C(F)(F)F)n1 [Compound 61]
Q: CC(C)(C)c1nc(N2CCN(CCCCNC(=O)N3CCC(c4ccc(Cl)cc4)CC3)CC2)cc(C(F)(F)F)n1 [Compound 16]
R: CC(C)(C)c1nc(N2CCN(CCCCNC(=O)N3CCCC(c4ccccc4)CC3)CC2)cc(C(F)(F)F)n1 (stereo not drawn) [Compound 82]
S: CC(C)(C)c1nc(N2CCN(CCCCNC(=O)N3CCN(c4cccnc4)CC3)CC2)cc(C(F)(F)F)n1 [Compound 30]
**Query** Hi! Can you put these in order of D2/D3 (D3 selectivity ratio, D2 Ki/D3 Ki), lowest number first? # the answer lists labels in the order requested
**Result** R, P, Q, S
(R: 5, P: 19, Q: 42, S: 77)

1: O=C(NCCCCN1CCN(c2ccc3ccccc3n2)CC1)N1CCN(c2ccccc2)CC1 [Compound 84]
2: CC(C)(C)c1nc(N2CCN(CCCCNC(=O)N3CCN(c4ncccn4)CC3)CC2)cc(C(F)(F)F)n1 [Compound 32]
**Query** Which value of D2/D3 (D3 selectivity ratio, D2 Ki/D3 Ki) is numerically greater: that of 1 or that of 2 ? Lab log: write the label of the selected item as the result.
**Result** 2

P: N#Cc1cc(N2CCN(CCCCNC(=O)N3CCN(c4ccccc4)CC3)CC2)cc(C(F)(F)F)c1 [Compound 4]
Q: CN1CCN(C(=O)NCCCCN2CCN(c3cc(C(F)(F)F)nc(C(C)(C)C)n3)CC2)CC1 [Compound 64]
R: Cc1cc(N2CCN(CCCCNC(=O)C3CCN(c4ccc(C(F)(F)F)cn4)CC3)CC2)nc(C(C)(C)C)n1 [Compound 107]
S: COc1ccc(N2CCN(C(=O)NCCCCN3CCN(c4cc(C(F)(F)F)nc(C(C)(C)C)n4)CC3)CC2)cc1 [Compound 21]
**Query** Arrange the 4 compounds from largest to smallest D2/D3 (D3 selectivity ratio, D2 Ki/D3 Ki). Answer by writing out the labels in the requested order.
**Result** P, S, R, Q
(P: 72, S: 48, R: 32, Q: 17)
